- Tested on: Casp-3 (Caspase-3) mRNA in HT-29 cells
- test.description: sqRT-PCR gene expression, Casp-3
- Type: cell-based, human
- condition.set: 200 μM, 24 h, vs untreated cells
- Protocol: Total RNA was isolated from HT-29 cells using the TRIzol reagent (TaKara, Japan) following the manufacturer’s instruction. The quantity and quality of each RNA sample were analyzed with a NanoDrop-1000 (Thermo Fisher Scientific, USA), followed by conversion to cDNA using RevertAid cDNA synthesis kit (Thermo Fisher Scientific, CA, USA) using 1 μg of mRNA to synthesize cDNA. […] The expression levels were analyzed by measuring the intensity of the band from the gel using Image-J software.
measure.name: Casp-3 gene expression up-regulation (fold)
One number for each entry, in fold.

Some entries whose results are on file:
                                 smiles_str  reading_unit  observed_result
0  O=C1N[C@@H](Cc2ccccc2)C(=O)N2CCC[C@@H]12          fold             1.76
1  O=C1N[C@@H](Cc2ccc(O)cc2)C(=O)N2CCC[C@@H]12          fold             2.73
2       CC(C)C[C@@H]1NC(=O)[C@@H]2CCCN2C1=O          fold             2.32

Kindly consider the entry below.
Query block: Which Casp-3 gene expression up-regulation is listed for CC(C)[C@@H]1NC(=O)[C@@H]2CCCN2C1=O ?
Result block: 1.31

----------
- Test system: HT-29 cells
- test.description: Annexin V-FITC/PI double staining, flow cytometry
- Format: cell-based, human
- condition.set: 100 μM, 24 h, vs CTL
measure.name: Q1 dead cells, fold change (fold)
One number for each entry, in fold.

                                 smiles_str  observed_result
0  O=C1N[C@@H](Cc2ccccc2)C(=O)N2CCC[C@@H]12              1.4
1        CC(C)[C@@H]1NC(=O)[C@@H]2CCCN2C1=O              3.0
2       CC(C)C[C@@H]1NC(=O)[C@@H]2CCCN2C1=O              3.1

Query block: # get_value(readout='Q1 dead cells, fold change', item= O=C1N[C@@H](Cc2ccc(O)cc2)C(=O)N2CCC[C@@H]12 )
Result block: 1.0

----------
- System: HT-29 cells
- test.description: Annexin V-FITC/PI double staining, flow cytometry
- Assay type: cell-based, human
- condition.set: 100 μM, 24 h, vs CTL
For each of the compounds below, state its Q2 + Q3 total apoptotic cells, fold change.

>>> print(df.to_string())
                                 smiles_str  observed_result
0  O=C1N[C@@H](Cc2ccccc2)C(=O)N2CCC[C@@H]12        15.9 fold
1  O=C1N[C@@H](Cc2ccc(O)cc2)C(=O)N2CCC[C@@H]12        15.9 fold

Below are 2 compounds. Give each one its Q2 + Q3 total apoptotic cells, fold change.
1. CC(C)[C@@H]1NC(=O)[C@@H]2CCCN2C1=O
2. CC(C)C[C@@H]1NC(=O)[C@@H]2CCCN2C1=O

Result block:
1. 3.9 fold
2. 3.6 fold

----------
- System: zebrafish (ABiC) embryos
- test.description: Zebrafish embryo developmental toxicity assay
- Type: in vivo, zebrafish (Danio rerio)
- Set-up: unit not given here
- condition.set: 96 hpf, 100 μM
measure.name: Mean survival rate of zebrafish embryos
Answers are plain numbers.

Recorded results for 3 molecules are shown here.
>>> df
                                   molecule              assay_target  observed_result
0  O=C1N[C@@H](Cc2ccc(O)cc2)C(=O)N2CCC[C@@H]12 [DKP-4, cyclo (L-Pro-L-Tyr)]  zebrafish (ABiC) embryos             79.3
1  O=C1N[C@@H](Cc2ccccc2)C(=O)N2CCC[C@@H]12 [DKP-3, cyclo (L-Pro-L-Phe)]  zebrafish (ABiC) embryos               80
2  CC(C)[C@@H]1NC(=O)[C@@H]2CCCN2C1=O [DKP-2, cyclo (L-Pro-L-Val)]  zebrafish (ABiC) embryos            71.11

Query block: Quick one: Mean survival rate of zebrafish embryos for CC(C)C[C@@H]1NC(=O)[C@@H]2CCCN2C1=O [DKP-1, cyclo (L-Pro-L-Leu)] ?
Result block: 71.11
